- tested.target: PI3Kα (Homo sapiens (Human))
- Sequence (P42336 whole entry, canonical isoform): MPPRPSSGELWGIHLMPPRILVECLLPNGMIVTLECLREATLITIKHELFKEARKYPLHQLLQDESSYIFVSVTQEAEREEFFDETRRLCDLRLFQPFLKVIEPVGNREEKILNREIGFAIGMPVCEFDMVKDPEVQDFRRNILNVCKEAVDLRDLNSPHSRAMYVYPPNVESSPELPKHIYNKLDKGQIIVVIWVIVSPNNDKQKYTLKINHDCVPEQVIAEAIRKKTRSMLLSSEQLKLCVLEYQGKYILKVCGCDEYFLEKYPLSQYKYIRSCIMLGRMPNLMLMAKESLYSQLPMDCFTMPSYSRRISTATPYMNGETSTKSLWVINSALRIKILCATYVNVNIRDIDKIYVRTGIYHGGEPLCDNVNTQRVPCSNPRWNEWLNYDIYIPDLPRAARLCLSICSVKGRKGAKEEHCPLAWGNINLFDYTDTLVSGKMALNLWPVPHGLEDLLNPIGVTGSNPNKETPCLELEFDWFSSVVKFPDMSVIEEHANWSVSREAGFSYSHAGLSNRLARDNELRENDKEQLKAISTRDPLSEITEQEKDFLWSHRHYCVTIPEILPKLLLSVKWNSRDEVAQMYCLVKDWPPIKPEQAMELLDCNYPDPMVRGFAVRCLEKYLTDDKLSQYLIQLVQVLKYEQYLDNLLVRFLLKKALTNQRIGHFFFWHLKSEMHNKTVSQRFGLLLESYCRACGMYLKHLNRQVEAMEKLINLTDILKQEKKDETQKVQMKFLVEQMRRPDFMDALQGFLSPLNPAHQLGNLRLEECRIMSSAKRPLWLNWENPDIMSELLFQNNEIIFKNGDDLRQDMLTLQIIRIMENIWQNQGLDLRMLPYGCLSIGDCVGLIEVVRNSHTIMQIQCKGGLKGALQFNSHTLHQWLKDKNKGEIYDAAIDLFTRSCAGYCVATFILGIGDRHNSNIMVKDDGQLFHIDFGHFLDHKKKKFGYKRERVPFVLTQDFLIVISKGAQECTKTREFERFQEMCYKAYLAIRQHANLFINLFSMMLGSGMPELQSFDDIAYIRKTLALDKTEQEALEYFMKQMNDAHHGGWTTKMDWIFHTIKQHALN
- Sequence (P27986 whole entry partner, canonical isoform): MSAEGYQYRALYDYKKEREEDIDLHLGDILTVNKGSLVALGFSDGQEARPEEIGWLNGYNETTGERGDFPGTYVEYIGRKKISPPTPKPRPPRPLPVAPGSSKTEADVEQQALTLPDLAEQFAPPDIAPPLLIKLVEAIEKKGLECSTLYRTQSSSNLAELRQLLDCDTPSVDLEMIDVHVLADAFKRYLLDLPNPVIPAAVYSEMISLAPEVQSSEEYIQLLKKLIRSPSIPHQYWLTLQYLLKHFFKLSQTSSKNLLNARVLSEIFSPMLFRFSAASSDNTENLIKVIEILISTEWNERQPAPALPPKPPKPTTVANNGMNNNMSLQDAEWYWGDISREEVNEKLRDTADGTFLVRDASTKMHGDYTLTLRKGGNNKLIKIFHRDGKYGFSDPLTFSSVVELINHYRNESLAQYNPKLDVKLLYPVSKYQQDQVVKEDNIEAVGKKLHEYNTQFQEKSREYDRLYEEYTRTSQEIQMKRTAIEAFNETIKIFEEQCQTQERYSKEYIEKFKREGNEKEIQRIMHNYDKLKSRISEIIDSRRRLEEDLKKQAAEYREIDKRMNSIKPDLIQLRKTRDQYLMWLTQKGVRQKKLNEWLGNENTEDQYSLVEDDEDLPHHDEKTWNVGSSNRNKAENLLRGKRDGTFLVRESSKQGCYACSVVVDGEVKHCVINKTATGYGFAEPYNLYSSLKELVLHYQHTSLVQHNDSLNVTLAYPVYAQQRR
- test.protocol: Enzymatic activity of PI3K isoforms, TR-FRET assay (PIP3 formation)
- Type: biochemical
- test.parameters: bound given in uM
Assignment: determine reported IC50 for the given compounds.

Qu. Dear colleague, please send me the reported IC50 for C[C@H](Nc1ncnc(N)c1C#Cc1cnccn1)c1nc2c(F)cccc2c(=O)n1-c1cc(F)cc(F)c1 [Compound 100a] when you can.
Ans. > 1 µM

Qu. Look up and report measured IC50 for this entry: Cc1cccc2c(=O)n(-c3ccccc3)c([C@H](C)Nc3ncnc(N)c3C#Cc3ccc(F)cn3)nc12 [Compound 56a]
Ans. > 1 µM

Qu. Answer with the recorded IC50 of COc1cc(F)cc(C#Cc2c(N)ncnc2N[C@@H](C)c2nc3cccc(Cl)c3c(=O)n2-c2ccccc2)c1 [Compound 47a] only.
Ans. > 1 µM

Qu. Determine its reported IC50: Cc1ccc(F)c2nc([C@H](C)Nc3ncnc(N)c3C#Cc3cnccn3)n(-c3cccc(C#N)c3)c(=O)c12 [Compound 73a]
Ans. > 1 µM

Qu. For CC[C@H](Nc1ncnc(N)c1C#Cc1cnccn1)c1nc2cccc(C)c2c(=O)n1-c1cc(F)cc(F)c1 [Compound 108a] , write its IC50.
Ans. > 1 µM

Qu. Provide IC50 value for the following compound: C[C@H](Nc1ncnc(N)c1C#Cc1ccc(C(N)=O)cn1)c1nc2cccc(Cl)c2c(=O)n1-c1ccccc1 [Compound 135a]
Ans. > 1 µM

Qu. Supply recorded IC50 for C[C@H](Nc1ncnc(N)c1C#Cc1cnccn1)c1nc2ccc(F)cc2c(=O)n1-c1cccc(Cl)c1 [Compound 97a] here.
Ans. > 1 µM

Qu. For C[C@H](Nc1ncnc(N)c1C#Cc1cnccn1)c1nc2cccc(F)c2c(=O)n1-c1cc(F)cc(F)c1 [Compound 87a] , write its IC50.
Ans. > 1 µM

Qu. Respond only with IC50 recorded for C[C@H](Nc1ncnc(N)c1C#Cc1cnccn1)c1nc2ccc(F)cc2c(=O)n1-c1cccc(C#N)c1 [Compound 95a]
Ans. > 1 µM

Qu. Return IC50 (reported value) for this compound: C[C@H](Nc1ncnc(N)c1C#Cc1ncccn1)c1nc2cccc(F)c2c(=O)n1-c1ccccc1 [Compound 109a]
Ans. > 1 µM

Qu. Determine its reported IC50: C[C@H](Nc1ncnc(N)c1C#Cc1ccc(F)cn1)c1nc2cccc(Cl)c2c(=O)n1-c1cccc(-c2ccccc2)c1 [Compound 60a]
Ans. > 1 µM

Qu. Please supply the value of reported IC50 for the item CC(C)CS(=O)(=O)NCc1cccc(-n2c([C@H](C)Nc3ncnc(N)c3C#Cc3ccc(F)cn3)nc3cccc(Cl)c3c2=O)c1 [Compound 131a]
Ans. > 1 µM

Qu. Quick one: give measured IC50 for C[C@H](Nc1ncnc(N)c1C#Cc1ccc(F)cn1)c1nc2c(F)ccc(Cl)c2c(=O)n1-c1ccccc1 [Compound 6a]
Ans. > 1 µM

Qu. Specify reported IC50 for the compound shown: C[C@H](Nc1ncnc(N)c1C#Cc1ccc(F)cn1)c1nc2c(Cl)ccc(Cl)c2c(=O)n1-c1ccccc1 [Compound 11a]
Ans. > 1 µM
